Cited source for all entries: PubChem BioAssay AID1486

- TEST: parental Ba/F3 cell viability inhibition, counter-screen for JAK2V617F inhibitor project, murine pro-B, CellTiter-Glo luminescence (AID 1486);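 note: 0% = DMSO wells and 100% = JAK Inhibitor I control wells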
- CONDITION SUMMARY: CellTiter-Glo ATP luminescence, at 5.6 µM, stronger effect = higher value
The whole screen tested about 220,000 compounds, of which about 2,400 (1.1%) were called active. The sample as a whole holds a higher share of actives than the screen did.
Listing: inhibition of selected compounds
# output: bare number, implied unit %

Input line: Using the record for `O=C(c1cncc(Br)c1)N1CCN(c2ccc([N+](=O)[O-])cc2)CC1` , report its inhibition.
Output line: 6.79

Input line: Entry to check: Cc1cccc(NC(=S)N2CCCC(c3nc4ccccc4[nH]3)C2)c1 (stereo not drawn)
Output line: 5.36

Input line: Consider next the compound `CC(=O)c1ccc2c(c1)OCCOCCOc1ccc(C(C)=O)cc1OCCOCCO2` in the same way.
Output line: 6.46

----------
- TEST: parental Ba/F3 cell viability inhibition, counter-screen for JAK2V617F inhibitor project, murine pro-B, CellTiter-Glo luminescence (AID 1486);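 note: 0% = DMSO wells and 100% = JAK Inhibitor I control wells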
- CONDITION SUMMARY: CellTiter-Glo ATP luminescence, at 5.6 µM, stronger effect = higher value
Among all 220,000 compounds or so, about 2,400 (1.1%) were called active. The sample as a whole holds a higher share of actives than the screen did.
OBSERVATION TYPE: inhibition (%)
Enter your answer as a number in %; do not include the unit.

Worked cases, inhibition given:
1. CSCCNCc1cn(-c2ccc(F)cc2F)nc1-c1ccccc1C
5.07
2. CCOC(=O)C1CN(S(=O)(=O)c2ccc(F)cc2)C1
0.24
3. CC(C)Nc1nnc(SCC(=O)/C=C2\N(C)c3ccccc3C2(C)C)s1
0.74
4. Cc1cc(NC(=O)CSc2nc3cc(Cl)ccc3c(=O)n2Cc2ccco2)no1
8.02

Shift focus to the following entry.
Input line: Look up inhibition for this compound: `CC1=C/C(=N\OS(=O)(=O)c2ccccc2)C=CC1=O`
Output line: 32.1

----------
- TEST: parental Ba/F3 cell viability inhibition, counter-screen for JAK2V617F inhibitor project, murine pro-B, CellTiter-Glo luminescence (AID 1486);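 note: 0% = DMSO wells and 100% = JAK Inhibitor I control wells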
- CONDITION SUMMARY: CellTiter-Glo ATP luminescence, at 5.6 µM, stronger effect = higher value
The campaign covered roughly 220,000 compounds. About 2,400 (1.1%) were called active. The entries come from a sample that favours actives as a whole.
Reported inhibition by item:

Worked examples follow.
1. COCc1cc(=O)oc2cc(NS(=O)(=O)c3ccc(C)cc3)ccc12
-1.36% (inactive)
2. Cc1nn(-c2ccccc2)c(-n2cccc2)c1C(=O)O
7.83% (inactive)
3. CNc1nnc(-c2ccco2)s1
-0.97% (inactive)

Input line: Sample `COc1ccc2nc(Nc3nc4ccc(NC(C)=O)cc4s3)sc2c1` — what was its inhibition?
Output line: 1.76% (inactive)

Input line: Thanks! And `CCCCCCCCn1c2c(c(=N)c3c1CCC3)CCCC2` ?
Output line: 88.4% (active)

Input line: Next entry: COc1ccc(NC(=O)/C(Cl)=C(/Cl)S(=O)Cc2ccc(C)cc2)cn1 (stereo not given)
Output line: 103% (active)

Input line: Item: `Cc1cccc(Cn2cnc3c(N)c(C)c(C)cc32)c1`
Output line: 32.6% (active)

Input line: Try this compound next: COC(=O)c1sccc1NC(=O)CC1C(=O)NCCN1C(=O)Nc1ccc(F)cc1F (stereo not given)
Output line: -2.58% (inactive)

Input line: And `COc1ccc(Nc2cc(Cl)ccc2C(=O)O)cn1` ?
Output line: -9.44% (inactive)

Input line: Try the compound CC(NC(=S)Nc1ccccc1)C(c1cccs1)N1CCOCC1 (stereo not given)
Output line: -4.02% (inactive)

Input line: Subsequent entry: `COc1ccc(-c2cc(C(=O)NCc3ccco3)no2)cc1OC`
Output line: 4.7% (inactive)

Input line: Another compound to look at: C/C(CC(=O)NC(C)c1ccccc1)=N\NC(N)=S (stereo not given)
Output line: -3.5% (inactive)

Input line: Cool, now `O=C(NNC(=O)c1cnccc1C(F)(F)F)c1ccc(Cl)cc1`
Output line: -1.83% (inactive)

Input line: Please do the same for `COc1cc(OC)cc(C(=O)NCC(=O)OCc2csc(-c3ccccc3)n2)c1` as well.
Output line: 10.9% (inactive)

Input line: Similarly, `CCOC(=O)c1cn(Cc2cccc(C)c2)nn1` ?
Output line: 2.15% (inactive)

Input line: Similarly, N#CC1=C(N)Oc2[nH]c(=S)[nH]c(=O)c2C12C(=O)Nc1ccccc12 (stereo not given) ?
Output line: 1.28% (inactive)

Input line: Next: `COc1ccccc1C(=O)Nc1nc2nc(-c3ccccc3)cc(=O)n2[nH]1`
Output line: 2.81% (inactive)

Input line: // repeat for `CCOc1ccc(Br)cc1CSC(=N)N` and report
Output line: 6.11% (inactive)

Input line: CCc1[nH]nc(C(=O)N2CCCC(CNS(=O)(=O)c3cccs3)C2)c1C (stereo not given) ?
Output line: 6.5% (inactive)

Input line: Next: `COC(=O)[C@H](Cc1ccccc1)NC(=O)[C@@H]1C[C@H]1[C@@H](NC(=O)OCc1ccccc1)c1ccccc1`
Output line: 1.6% (inactive)

Input line: Next: `O=C(CNCc1cccs1)Nc1cc(S(=O)(=O)N2CCCC2)ccc1Cl`
Output line: -6.85% (inactive)

Input line: Another compound to look at: `CC1(C)C=C2[C@H]3CC[C@@H]4[C@@]5(C)CCC(=O)C(C)(C)[C@@H]5CC[C@@]4(C)[C@]3(C)CC[C@@]2(C(=O)O)CC1`
Output line: 4.85% (inactive)

Input line: What do you have for `COc1ccc(NC(=S)Nc2ccccc2Cl)cn1` ?
Output line: 9.94% (inactive)

----------
- TEST: parental Ba/F3 cell viability inhibition, counter-screen for JAK2V617F inhibitor project, murine pro-B, CellTiter-Glo luminescence (AID 1486);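 note: 0% = DMSO wells and 100% = JAK Inhibitor I control wells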
- CONDITION SUMMARY: CellTiter-Glo ATP luminescence, at 5.6 µM
Hit rate of the full screen: of about 220,000 compounds, about 2,400 (1.1%) were called active.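 How the source made its calls: active means inhibition above a per-campaign cutoff, the mean inhibition of all tested compounds plus 3 SD (cut at about 27% in these data); inactive means the rest.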 The sample holds actives, similar compounds and a random draw of the others, so the mix is not that of the screen.
Write down one outcome, taken from active, inactive

Input line: Please indicate how the test categorized `CS(=O)(=O)N1CCN(C(=O)Cc2ccccc2)CC1` .
Output line: inactive

----------
inhibition: recorded values
- TEST: parental Ba/F3 cell viability inhibition, counter-screen for JAK2V617F inhibitor project, murine pro-B, CellTiter-Glo luminescence (AID 1486);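 note: 0% = DMSO wells and 100% = JAK Inhibitor I control wells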
- CONDITION SUMMARY: CellTiter-Glo ATP luminescence, at 5.6 µM, stronger effect = higher value
About 2,400 (1.1%) of roughly 220,000 compounds were called active. The entries come from a sample that favours actives as a whole.
Answer with a number only, understood to be in %.

1) O=c1[nH]c2cccnc2n(CCNc2ncc(C(F)(F)F)cc2Cl)c1=O
3.7

Input line: What value of inhibition has been recorded for this entry: `Cc1ccc(-c2cc(=O)c3ccc(Cl)cc3[nH]2)cc1`
Output line: -0.93

Input line: Check CCCOc1ccc(NC(=O)C2OC3OC(C)(C)OC3C3OC(C)(C)OC23)cc1 (configuration not stated) too.
Output line: 4.19

Input line: Also need `Cc1ccc(-c2cc(=O)c3ccc(F)cc3[nH]2)cc1` , thanks.
Output line: 0.37

Input line: And what about the compound `COc1cc2c(cc1OC)CN(C(=O)c1ccc(S(=O)(=O)N3CCCCCC3)cc1)CC2` ?
Output line: 10

Input line: # iterate: `Cc1cc(C(=O)CSc2nc(N)cc(=O)[nH]2)c(C)n1Cc1ccco1`
Output line: 33.8

----------
- TEST: parental Ba/F3 cell viability inhibition, counter-screen for JAK2V617F inhibitor project, murine pro-B, CellTiter-Glo luminescence (AID 1486);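 note: 0% = DMSO wells and 100% = JAK Inhibitor I control wells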
- CONDITION SUMMARY: CellTiter-Glo ATP luminescence, at 5.6 µM, stronger effect = higher value
Out of some 220,000 compounds screened, about 2,400 (1.1%) were called active. The list comes from a sample in which actives are over-represented; it also holds close analogues and randomly drawn compounds.
OBSERVATION TYPE: inhibition

Observe how each entry below is paired with its result.
1. O=C(Nc1cc(N2CCOCC2)ncn1)NC1(C(F)(F)F)Oc2ccc(Cl)cc2O1 (stereo not drawn)
42.3% (active)
2. O=C(O)c1ccn(COc2ccc(Br)cc2)n1
6.73% (inactive)

Input line: Recorded inhibition of `c1cnn(-c2cc(N3CCOCC3)ncn2)c1` , please.
Output line: 5.98% (inactive)

Input line: Lookup `Nc1scc[n+]1Cc1cccc2cccnc12`
Output line: -7.17% (inactive)

Input line: Then this compound: `CN1/C(=C\C(=O)c2cccnc2Cl)C(C)(C)c2ccccc21`
Output line: 5.33% (inactive)

Input line: Same question, `COc1ccc(OCCC(=O)c2ccc(OC)cc2)cc1` this time
Output line: -3.65% (inactive)

Input line: Check CCCOC(=O)c1[nH]c2c(c1C)C(=O)CC(c1cc(OC)c(OC)c(OC)c1)C2 (stereo not drawn) too.
Output line: 41.3% (active)

Input line: Do the same for `O=C1/C(=C\c2ccsc2)NC(=S)N1c1ccccc1` please
Output line: 1.31% (inactive)

Input line: Param item: `CNC(=O)Nc1cc(C(C)(C)C)no1`
Output line: 54.8% (active)
